# Test system: ERN1;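 also: KINOMEscan scanMAX binding as percent activity remaining versus control; lower means stronger binding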
# MEASUREMENT_CONTEXT: Compound Concentration (nM):1000
# strict inequality: Percent Control < 80% yields met, everything else yields not met

molecule="COc1cc(N2CCN(C(C)C)CC2)ccc1Nc1nc(Nc2ccc(F)cc2C(=O)NC[C@@H](O)CO)c2cc[nH]c2n1 [GSK1392956A]" study_target=ERN1 category=met
molecule="COc1ccc2c(-c3ccnc(Nc4cccc(OC(F)(F)F)c4)n3)cnn2n1 [GW810372X]" study_target=ERN1 category="not met"
molecule=O=C(Nc1n[nH]c2nc(-c3ccc(O)cc3)c(Br)cc12)C1CC1 study_target=ERN1 category="not met"
molecule="CN(C)c1cc2c(Nc3ccc4c(cnn4Cc4ccccc4)c3)ncnc2cn1 [GW282974X]" study_target=ERN1 category=met
molecule="COc1ccc(COc2ccc(Cc3cnc(N)nc3N)cc2OC)cc1 [GW632580X]" study_target=ERN1 category="not met"
molecule=COc1ccc2cc(-c3c(-c4ccncc4)nc(-c4ccc(S(C)(=O)=O)cc4C)n3C)ccc2c1 study_target=ERN1 category=met
